Each recorded value in this set is attributed to ChEMBL document CHEMBL1125136.

Below, each entry is listed with its recorded MIC.
system: Escherichia coli; assay: Evaluated for minimum inhibitory concentration against gram-negative bacteria Escherichia coli Vogel; assay type: functional
Number in µg/mL, nothing else.

# count of solved cases: 5
# Molecule, MIC / µg/mL
records = [
    ("CC1COc2c(N3CCC4(CCN(C)C4)C3)c(F)cc3c(=O)c(C(=O)O)cn1c23 (stereo not given)", 0.025),
    ("CCn1cc(C(=O)O)c(=O)c2cc(F)c(N3CCC4(CCCN4)C3)c(F)c21.Cl (stereo not given)", 0.2),
    ("CCn1cc(C(=O)O)c(=O)c2cc(F)c(N3CCC4(CCN(C)C4)C3)c(F)c21 (stereo not given)", 0.006),
    ("CCn1cc(C(=O)O)c(=O)c2c(F)c(F)c(N3CCC4(CCN(C)C4)C3)c(F)c21 (stereo not given)", 0.8),
    ("CN1CCC2(CCN(c3c(F)cc4c(=O)c(C(=O)O)cn(C5CC5)c4c3F)C2)C1 (stereo not given)", 0.05),
]

Please find the next molecule below.
get_value(item= CCn1cc(C(=O)O)c(=O)c2cc(F)c(N3CCCC4(CCCNC4)C3)nc21 (stereo not given) , readout=MIC) returns 12.5

###

Measured ED50 of individual entries
system: Escherichia coli; test: In vivo protective dose was determined in mouse protection assay in Escherichia coli Vogel after subcutaneous administration; assay type: functional; conditions: sc, read-out: PD50
Write the number in mg/kg without appending the unit.

Worked examples follow.
# Molecule, Tested target, ED50, mg/kg
rows = [
    ("CCN1CCC2(CCN(c3nc4c(cc3F)c(=O)c(C(=O)O)cn4CC)C2)C1 (centres undefined)", "Escherichia coli", 15),
    ("CC1COc2c(N3CCC4(CCN(C)C4)C3)c(F)cc3c(=O)c(C(=O)O)cn1c23 (centres undefined)", "Escherichia coli", 4.5),
    ("O=C(O)c1cn(C2CC2)c2c(F)c(N3CCC4(CCCN4)C3)c(F)cc2c1=O (centres undefined)", "Escherichia coli", 1),
]

Consider the additional molecule presented here.
Value of ED50 reported for the molecule CCn1cc(C(=O)O)c(=O)c2cc(F)c(N3CCC4(CCN(C)C4)C3)nc21 (centres undefined) is 4.4

###

tested on: Escherichia coli; assay: In vivo protective dose for mouse protection assay in Escherichia coli Vogel after peroral administration; type: functional; details: po, read-out: PD50
Measured ED50 of individual entries

Reference set (2 entries):
# Compound, Tested target, Endpoint result
rows = [
    ("CCn1cc(C(=O)O)c(=O)c2cc(F)c(N3CCC4(CCNC4)C3)nc21.Cl (stereo not drawn)", "Escherichia coli", "> 100 mg/kg"),
    ("CCn1cc(C(=O)O)c(=O)c2cc(F)c(N3CCC4(CCNC4)C3)c(F)c21 (stereo not drawn)", "Escherichia coli", "> 100 mg/kg"),
]

Please turn your attention to the following entry.
For O=C(O)c1cn(C2CC2)c2c(F)c(N3CCC4(CCNC4)C3)c(F)cc2c1=O (stereo not drawn) the compound record lists ED50 as > 100 mg/kg

###

test system: Escherichia coli; experiment: Evaluated for minimum inhibitory concentration against gram-negative bacteria Escherichia coli Vogel; assay type: functional
MIC: recorded values
Report the value in µg/mL with no unit label.

Some entries whose results are on file:
# Molecule, Unit name, Endpoint result
measured = [
    ("CCn1cc(C(=O)O)c(=O)c2cc(F)c(N3CCC4(CCNC4)C3)c(F)c21 (centres undefined)", "µg/mL", 0.1),
    ("CCN1CCC2(CCN(c3c(F)cc4c(=O)c(C(=O)O)cn(C5CC5)c4c3F)C2)C1 (centres undefined)", "µg/mL", 0.1),
    ("O=C(O)c1cn(C2CC2)c2c(F)c(N3CCC4(CCNC4)C3)c(F)cc2c1=O (centres undefined)", "µg/mL", 0.2),
]

Kindly note: Escherichia coli, `CCn1cc(C(=O)O)c(=O)c2cc(F)c(N3CCNCC3)cc21` , MIC value reported: 0.1
